# assayTarget: UniProt P12822
# Sequence (whole entry): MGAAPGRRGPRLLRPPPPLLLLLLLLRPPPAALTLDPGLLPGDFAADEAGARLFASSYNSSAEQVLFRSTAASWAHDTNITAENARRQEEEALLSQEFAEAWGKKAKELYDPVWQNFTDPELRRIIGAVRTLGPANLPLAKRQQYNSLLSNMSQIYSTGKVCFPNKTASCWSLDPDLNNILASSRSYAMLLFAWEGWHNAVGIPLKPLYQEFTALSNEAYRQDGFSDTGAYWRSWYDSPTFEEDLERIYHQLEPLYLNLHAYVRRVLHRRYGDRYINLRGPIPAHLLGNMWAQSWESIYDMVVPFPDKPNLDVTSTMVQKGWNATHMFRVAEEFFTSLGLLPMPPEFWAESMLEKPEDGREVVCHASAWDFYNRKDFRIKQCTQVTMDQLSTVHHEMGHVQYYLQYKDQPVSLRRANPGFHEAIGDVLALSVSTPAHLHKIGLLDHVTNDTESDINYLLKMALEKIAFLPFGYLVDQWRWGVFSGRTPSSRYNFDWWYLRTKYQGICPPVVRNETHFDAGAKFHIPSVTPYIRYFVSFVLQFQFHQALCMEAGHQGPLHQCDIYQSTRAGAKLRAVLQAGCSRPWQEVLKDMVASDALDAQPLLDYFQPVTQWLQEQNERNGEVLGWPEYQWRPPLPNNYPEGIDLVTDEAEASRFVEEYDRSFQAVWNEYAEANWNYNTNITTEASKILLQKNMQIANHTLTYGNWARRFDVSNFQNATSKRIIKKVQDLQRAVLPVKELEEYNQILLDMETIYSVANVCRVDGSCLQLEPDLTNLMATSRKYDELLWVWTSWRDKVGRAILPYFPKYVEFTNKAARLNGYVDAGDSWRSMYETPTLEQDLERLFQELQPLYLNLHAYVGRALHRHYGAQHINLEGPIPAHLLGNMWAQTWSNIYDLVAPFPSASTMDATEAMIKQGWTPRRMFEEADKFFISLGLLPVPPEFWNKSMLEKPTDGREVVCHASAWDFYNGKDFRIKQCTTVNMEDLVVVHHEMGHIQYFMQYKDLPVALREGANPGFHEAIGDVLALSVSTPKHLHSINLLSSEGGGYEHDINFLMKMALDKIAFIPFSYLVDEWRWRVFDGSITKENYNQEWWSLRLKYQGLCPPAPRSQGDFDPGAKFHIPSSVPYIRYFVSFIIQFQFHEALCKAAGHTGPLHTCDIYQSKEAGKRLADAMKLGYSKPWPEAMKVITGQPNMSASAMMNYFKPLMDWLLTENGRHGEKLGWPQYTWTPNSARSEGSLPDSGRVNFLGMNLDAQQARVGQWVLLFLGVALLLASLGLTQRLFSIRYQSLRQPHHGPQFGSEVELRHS
# testName: In vitro stability of compound toward enzymatic degradation by rabbit lung Angiotensin I converting enzyme after 30 minutes incubation
Peptide text beside a SMILES is read from it. * marks the point of attachment. Pyrrolidide = C1CCN(*)C1
measuredQuantity: Residual peptide (%)

See these solved cases before continuing.
- compound: "CC(=O)N[C@@H](CO)CN[C@@H](CC(=O)O)C(=O)N[C@@H](CCCCN)C(=O)N1CCC[C@H]1C(=O)O"
  unitOfMeasure: "%"
  Residual peptide: 99.7
- compound: "CC(=O)N[C@@H](CO)C(=O)N[C@@H](CC(=O)O)C(=O)N[C@@H](CCCCN)C(=O)N1CCC[C@H]1C(N)=O (Ac-SDKP-NH2)"
  unitOfMeasure: "%"
  Residual peptide: 99.9
- compound: "CC(=O)N[C@@H](CO)C(=O)N[C@@H](CC(=O)O)C(=O)N[C@@H](CCCCN)C(=O)N1CCCC1 (Ac-Ser-Asp-Lys-Pyrrolidide)"
  unitOfMeasure: "%"
  Residual peptide: 36.2
- compound: "CC(=O)N[C@@H](CO)C(=O)N[C@@H](CC(=O)O)C(=O)N[C@@H](CCCCN)CN1CCC[C@H]1C(=O)O"
  unitOfMeasure: "%"
  Residual peptide: 99.7

(P) CC(=O)N[C@@H](CO)C(=O)N[C@H](CN[C@@H](CCCCN)C(=O)N1CCC[C@H]1C(=O)O)CC(=O)O
(Q) CC(=O)N[C@@H](CO)C(=O)N[C@@H](CC(=O)O)C(=O)N[C@@H](CCCCN)C(=O)N1CCC[C@H]1C(=O)O (Ac-SDKP-OH)
Please indicate which entry, P or Q , has the lower recorded Residual peptide value. Your choice should be expressed through its label.
Q
